The following molecules were reported with IC50 values on Aldo-keto reductase family 1 member B1 (Rattus norvegicus) in different studies.
Consider the cut-off 40 nM. If the recorded IC50 is strictly smaller, the label is 1.0; if not, the label is 0.0.

smilesStr | assignedCategory
O=C(O)Cn1nnnc1-c1ccc(F)cc1 | 0.0
O=C(O)Cn1nnnc1-c1ccco1 | 0.0
CCCC(=O)Nc1ccsc1-c1nnnn1CC(=O)O | 1.0
CSc1ccc(-c2nnnn2CC(=O)O)s1 | 1.0
O=C(O)Cn1nnnc1-c1ccc(C(=O)O)cc1 | 0.0
COC(=O)Cn1nnnc1-c1ccsc1 | 0.0
Cc1ccccc1CC(=O)Nc1ccc(C(=O)C[N+](=O)[O-])c(Cl)c1 | 1.0
Cc1cc(NS(=O)(=O)c2cccc(F)c2F)cc(C)c1S(=O)(=O)C[N+](=O)[O-] | 1.0
Cc1c(Cl)sc2c1c(=O)n(Cc1ccc(Cl)c(Cl)c1)c(=O)n2CC(=O)O | 1.0
O=C(O)CN1C(=S)CCc2cc(Cl)ccc21 | 0.0
